Origin of measurements: the supplement of paper PMC11451515

Give AUC of viability dose-response curve for every item shown.
system: NOMO1; assay: AUC of viability dose-response curve (% viability x log10 dose units); higher = less sensitive; conditions: RPMI 5 mM glucose + 10% dialyzed FBS; 48 h
Give bare numbers.

Before answering, review these 3 worked examples.
OC(=O)C/1=C/C(=O)NC(=O)N1: 437
CC[C@H](NC1=C2N=C[NH]C2=NC=N1)C/3=N/C4=C(C(=CC=C4)F)C(=O)N3C5=CC=CC=C5: 432
CC1(C)O[C@@H]2C[C@H]3[C@@H]4C[C@H](F)C5=CC(=O)C=C[C@]5(C)[C@@]4(F)[C@@H](O)C[C@]3(C)[C@]2(C(=O)CO)O1: 457

Turning now to a further compound:
Qu. # query: AUC of viability dose-response curve | item Cc1c(C)n(Cc2ccc(-c3ccccc3C(=O)O)cc2)c2ccc(C(=O)N[C@@H](C)c3ccc([N+](=O)[O-])cc3)cc12 | system: NOMO1
Ans. 417

###

Give cell viability for every item shown.
test system: SEM cells; test: cell viability relative to DMSO control; higher = less cytotoxic; conditions: RPMI 5 mM glucose + 10% FBS; 48 h; 0.569 µM
One number for each entry, in %.

Before answering, review these 3 worked examples.
O=C(NCC1CCCCN1)c1cc(OCC(F)(F)F)ccc1OCC(F)(F)F (stereo not drawn): 131
OC[C@H]1O[C@H]([C@H](O)[C@@H]1O)N2\C=C/C(=O)NC2=O: 114
NC1=C(Cl)C(=CC=N1)OC2=C(F)C=C(NC(=O)\C3=C\N\C=C(C3=O)\C4=CC=C(F)C=C4)C=C2: 65.3

Hello, I would appreciate it if you could give cell viability for each entry below.
1. CCN1CCN(CC1)CC(=O)NC2=CC=C(C3=C2C4=C(S3)C=CC=C4)C5=C6O\C(=C/C(=O)C6=CC=C5)N7CCOCC7
2. Cc1nn(Cc2ccccc2Cl)c(C)c1CN(C)CC(O)COc1ccc(Cl)cc1 (stereo not drawn)
3. CN[C@@H]1[C@@H](O)[C@@H](O[C@@H]2[C@@H](O)[C@H](O[C@H]3O[C@H](CN)[C@@H](O)[C@H](O)[C@H]3O)[C@@H](N)C[C@H]2NC(=O)[C@@H](O)CN)OC[C@]1(C)O
4. CN(C)[S+](=O)([O-])c1ccc2c(c1)C(=Cc1cc3c([nH]1)CCCC3)C(=O)N2

Ans.
1. 82.3
2. 107
3. 123
4. 118

Qu. # query: cell viability | item O=C(O)Cn1nnc(-c2cc(N3CCC(Oc4cc(F)ccc4Br)CC3)no2)n1 | system: SEM cells
Ans. 96.9

###

system: SEM cells; experiment: cell viability relative to DMSO control; higher = less cytotoxic; settings: RPMI 5 mM glucose + 10% dialyzed FBS; 48 h; 0.00234 µM
quantity.measured: cell viability (%)
Numbers only, in %.

C[C@]12CC[C@@H]3c4ccc(O)cc4CC[C@H]3[C@@H]1[C@@H](O)[C@@H](O)[C@@H]2O: 110
CC1CNc2c(cccc2[S+](=O)([O-])N[C@@H](CCCNC(=N)N)C(=O)N2CC[C@@H](C)C[C@@H]2C(=O)O)C1 (some centres undefined): 90.1
C[C@]12CC[C@H]3[C@@H](CC[C@H]4NC(=O)\C=C/[C@]34C)[C@@H]1CC[C@@H]2C(=O)NC5=CC(=CC=C5C(F)(F)F)C(F)(F)F: 141
COc1cc(F)c(F)c(Nc2ccc(I)cc2F)c1N[S+](=O)([O-])C1(C[C@H](O)CO)CC1: 105

Hello, I would appreciate it if you could give cell viability for each entry below.
1. Cc1ccccc1C(=O)c1ccc(Nc2ccc(Br)cc2N)cc1Cl
2. C[C@](O)(CS(=O)(=O)c1ccc(F)cc1)C(=O)Nc1ccc(C#N)c(C(F)(F)F)c1
3. Cc1onc(-c2ccccc2Cl)c1C(=O)N[C@@H]1C(=O)N2[C@@H]1SC(C)(C)[C@@H]2C(=O)[O-]
4. O=C1c2ccccc2-[n+]2ccc3c([nH]c4ccccc43)c21
5. Cc1nn(Cc2ccccc2Cl)c(C)c1CN(C)CC(O)COc1ccc(Cl)cc1 (centres undefined)

Ans.
1: 121; 2: 113; 3: 110; 4: 98; 5: 91.8

###

Give cell viability for every item shown.
test system: P12-Ichikawa; test: cell viability relative to DMSO control; higher = less cytotoxic; settings: HPLM + 10% dialyzed FBS; 48 h; 15.4 µM
Numbers only, in %.

Before answering, review these 6 worked examples.
C[C@]12COC(=O)C[C@@H]1CC[C@@H]1[C@@H]2CC[C@@]2(C)[C@H]1CC[C@]2(C)O: 100
CN[C@H]1CCC2=CC(=C(OC)C(=C2C/3=C/C=C(OC)\C(=O)/C=C13)OC)OC: 7.37
CN[C@@H](C)[C@H]1[C@H](O)C[C@@]2(C)[C@@H]3CC[C@H]4C(C)(C)[C@@H](NC)CC[C@@]45C[C@@]35CC[C@]12C: 97
C=C1/C(=C\C=C2/CCC[C@]3(C)[C@@H]([C@H](C)CCCC(C)(C)O)CC[C@@H]23)C[C@@H](O)C[C@@H]1O: 118
CCN1CCN(c2ccc(Nc3cc(N(C)C(=O)Nc4c(Cl)c(OC)cc(OC)c4Cl)ncn3)cc2)CC1: 73.3
C[C@H]1C[C@@H]2[C@H](CC[C@@]3(C)[C@H]2CC[C@]3(OC(C)=O)C(C)=O)[C@@]\4(C)CCC(=O)\C=C14: 95.5

Hello, I would appreciate it if you could give cell viability for each entry below.
1. COC(=O)C[C@](O)(CCCC(C)(C)O)C(=O)O[C@@H]1C(OC)=CC23CCCN2CCc2cc4c(cc2[C@H]13)OCO4 (stereo partly specified)
2. C[C@]12CC[C@H]3[C@@H](CC[C@H]4NC(=O)\C=C/[C@]34C)[C@@H]1CC[C@@H]2C(=O)NC5=CC(=CC=C5C(F)(F)F)C(F)(F)F
3. CC(C)C1NC(=O)C(NC(=O)C2=C3\N=C\4/C(=C(C)\C(=O)\C(=C4C(=O)NC5C(C)OC(=O)C(C(C)C)N(C)C(=O)CN(C)C(=O)C6CCCN6C(=O)C(NC5=O)C(C)C)N)OC3=C(C)C=C2)C(C)OC(=O)C(C(C)C)N(C)C(=O)CN(C)C(=O)C7CCCN7C1=O (stereo unspecified)
4. COc1ccc(-c2ccc3ncc4c(c3c2)n(-c2ccc(N3CCNCC3)c(C(F)(F)F)c2)c(=O)n4C)cn1

Ans.
1. 91.3
2. 107
3. 4.3
4. 4.22

Qu. # query: cell viability | item COc1ccc([S+](=O)([O-])N(C(C)=O)c2ccccc2/C=C/c2cc[n+]([O-])cc2)cc1 | system: P12-Ichikawa
Ans. 25.1

###

test system: NOMO1; test: cell viability relative to DMSO control; higher = less cytotoxic; conditions: RPMI 5 mM glucose + 10% FBS; 48 h; 1.71 µM
Give cell viability for every item shown.
Give bare numbers, in %.

Hello, I would appreciate it if you could give cell viability for each entry below.
1. CNC(=O)c1ccc(N2C(=S)N(c3cnc(C#N)c(C(F)(F)F)c3)C(=O)C23CCC3)cc1F
2. C[C@]12CCC(=O)C=C1CC[C@@H]1[C@@H]2[C@@H](O)C[C@@]2(C)[C@H]1CC[C@]2(O)C(=O)CO
3. COc1cc(F)c(F)c(Nc2ccc(I)cc2F)c1N[S+](=O)([O-])C1(C[C@H](O)CO)CC1

Ans.
1: 83.4; 2: 111; 3: 111

Hello, I would appreciate it if you could give cell viability for each entry below.
1. CC(C)N[C@@H]1CCn2c(=O)[nH]c3cccc(c32)[C@H]1O
2. C[C@@H]1COCCN1c1cc(C2([S@+](C)(=N)[O-])CC2)nc(-c2ccnc3[nH]ccc23)n1
3. Cc1coc2c1C(=O)C(=O)c1c-2ccc2c(C)cccc12
4. CC(C)c1noc(N2CCC(COc3ccc(-c4ccc([S+](C)(=O)[O-])cc4)nc3)CC2)n1
5. C[C@@]12C(=O)OC(=O)[C@@]1(C)C1CCC2O1
6. COc1ccc([S+](=O)([O-])N(C(C)=O)c2ccccc2/C=C/c2cc[n+]([O-])cc2)cc1
7. CC[C@]12CC[C@H]3[C@@H](CCC/4=C/C(=O)CC[C@H]34)[C@@H]1\C=C/[C@@]2(O)C#C

Ans.
104
103
114
104
81.6
44.5
121

###

test system: P12-Ichikawa; assay: cell viability relative to DMSO control; higher = less cytotoxic; conditions: HPLM + 10% dialyzed FBS; 48 h; 5.12 µM
Threshold 80%: cell viability strictly smaller gives 1 (yes), otherwise 0 (no).

Qu. Given the entry COc1ccc(-c2ccc3ncc4c(c3c2)n(-c2ccc(N3CCNCC3)c(C(F)(F)F)c2)c(=O)n4C)cn1 , would its reported cell viability be below 80%?
Ans. 1 (yes)

Qu. Given the entry CC(C)(O)CC[C@@H](O)[C@](C)(O)[C@H]1CC[C@@]2(O)C/3=C/C(=O)[C@@H]4C[C@@H](O)[C@@H](O)C[C@]4(C)[C@H]3CC[C@]12C , would its reported cell viability be below 80%?
Ans. 0 (no)

Qu. Given the entry O=C(Nc1cc(Cl)cc2c1[nH]c1cnccc12)c1cccnc1 , would its reported cell viability be below 80%?
Ans. 0 (no)

Qu. Given the entry C[N]1C=C(C=N1)C2=C3\C=N/NC(=O)C4=C3C(=CC(=C4)NC(=O)[C@H](N)C5CCCCC5)[NH]2 , would its reported cell viability be below 80%?
Ans. 1 (yes)

Qu. Given the entry NNCCc1ccccc1 , would its reported cell viability be below 80%?
Ans. 0 (no)
